This listing pairs compounds with measured EC50.
# measured_target: hMC1-R (Homo sapiens)
# Construct: expressed in transfected cells; host or cells: CHO-K1
# Sequence (Q01726 whole entry): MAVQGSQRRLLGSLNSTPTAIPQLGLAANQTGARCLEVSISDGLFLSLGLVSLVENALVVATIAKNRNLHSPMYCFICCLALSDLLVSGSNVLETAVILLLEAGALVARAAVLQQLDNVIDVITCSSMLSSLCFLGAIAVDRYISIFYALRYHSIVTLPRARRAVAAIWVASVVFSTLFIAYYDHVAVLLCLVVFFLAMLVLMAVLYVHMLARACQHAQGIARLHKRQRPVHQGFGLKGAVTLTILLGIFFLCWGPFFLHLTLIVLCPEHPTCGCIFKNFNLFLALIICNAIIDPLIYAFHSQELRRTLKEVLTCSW
# protocol_summary: cyclic AMP bioassay (ECL) in CHO-K1 cells
# Type: cell-based
measured_metric: EC50

smiles_string	measured_target	measured_metric	observed_measurement
CCCC[C@@H]1NC(=O)N(CC(=O)N[C@H]2CSSC(C)(C)[C@@H](C(N)=O)NC(=O)[C@H](Cc3c[nH]c4ccccc34)NC(=O)[C@H](CCCNC(=N)N)NC(=O)[C@@H](Cc3ccccc3)NC(=O)[C@H](Cc3cnc[nH]3)NC(=O)[C@@H](C)NC2=O)C1=O	hMC1-R (Homo sapiens)	EC50	17 nM
C[C@H]1NC(=O)[C@@H](NC(=O)[C@H](CCCNC(=N)N)N2C(=O)CNC2=O)CSSC[C@@H](C(N)=O)NC(=O)[C@H](Cc2c[nH]c3ccccc23)NC(=O)[C@H](CCCNC(=N)N)NC(=O)[C@@H](Cc2ccccc2)NC(=O)[C@H](Cc2cnc[nH]2)NC1=O	hMC1-R (Homo sapiens)	EC50	8.85 nM
CC(=O)N[C@@H](CCCNC(=N)N)C(=O)N[C@H]1CSSC[C@@H](C(N)=O)NC(=O)[C@H](Cc2c[nH]c3ccccc23)NC(=O)[C@H](CCCNC(=N)N)NC(=O)[C@@H](Cc2ccc3ccccc3c2)NC(=O)[C@H](Cc2c[nH]cn2)NC(=O)[C@@H](C)NC1=O	hMC1-R (Homo sapiens)	EC50	193 nM
C[C@H]1NC(=O)[C@@H](NC(=O)CN2C(=O)N[C@@H](CCCNC(=N)N)C2=O)CSSC[C@@H](C(N)=O)NC(=O)[C@H](Cc2c[nH]c3ccccc23)NC(=O)[C@H](CCCNC(=N)N)NC(=O)[C@@H](Cc2ccc3ccccc3c2)NC(=O)[C@H](Cc2cnc[nH]2)NC1=O	hMC1-R (Homo sapiens)	EC50	96.6 nM
